Measured pSTAT3 MFI, Monocytes, 0.0001 nM (unstimulated 2116) of individual entries
Target: T1, IL10Rα/IL2Rγ receptor (human, UniProt Q13651 22-578; P31785 23-369)
T1 sequence (looked up) 1: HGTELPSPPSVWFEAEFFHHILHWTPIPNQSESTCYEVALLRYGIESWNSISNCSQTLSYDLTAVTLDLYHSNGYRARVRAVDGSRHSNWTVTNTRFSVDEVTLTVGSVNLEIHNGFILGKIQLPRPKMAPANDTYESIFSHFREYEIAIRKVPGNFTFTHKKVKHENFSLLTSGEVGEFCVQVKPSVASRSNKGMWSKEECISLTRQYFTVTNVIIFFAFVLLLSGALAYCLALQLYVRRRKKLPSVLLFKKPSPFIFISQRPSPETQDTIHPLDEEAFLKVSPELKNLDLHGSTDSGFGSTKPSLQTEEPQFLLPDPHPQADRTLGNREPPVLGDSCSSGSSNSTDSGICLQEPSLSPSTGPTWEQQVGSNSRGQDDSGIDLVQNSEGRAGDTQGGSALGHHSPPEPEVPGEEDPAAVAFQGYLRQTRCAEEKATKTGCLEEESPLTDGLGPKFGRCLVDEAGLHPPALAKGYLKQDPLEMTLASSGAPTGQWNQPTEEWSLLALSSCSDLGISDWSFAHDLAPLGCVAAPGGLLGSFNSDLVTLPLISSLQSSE
T1 sequence (looked up) 2: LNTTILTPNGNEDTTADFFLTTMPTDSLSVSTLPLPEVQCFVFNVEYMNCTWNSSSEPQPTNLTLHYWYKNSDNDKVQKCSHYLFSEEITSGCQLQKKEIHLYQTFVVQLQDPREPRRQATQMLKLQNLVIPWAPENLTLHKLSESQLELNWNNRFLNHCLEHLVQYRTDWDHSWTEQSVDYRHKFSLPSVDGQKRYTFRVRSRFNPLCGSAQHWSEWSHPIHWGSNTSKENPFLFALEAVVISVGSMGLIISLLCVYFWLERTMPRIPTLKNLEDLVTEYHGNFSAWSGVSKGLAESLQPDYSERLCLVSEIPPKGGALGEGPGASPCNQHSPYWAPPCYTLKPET
Assay: cell-based or functional assay
valueKind: pSTAT3 MFI, Monocytes, 0.0001 nM (unstimulated 2116) (MFI)

binder	measurementUnit	numericValue
DR395(DR229-DR239) (bispecific antibody) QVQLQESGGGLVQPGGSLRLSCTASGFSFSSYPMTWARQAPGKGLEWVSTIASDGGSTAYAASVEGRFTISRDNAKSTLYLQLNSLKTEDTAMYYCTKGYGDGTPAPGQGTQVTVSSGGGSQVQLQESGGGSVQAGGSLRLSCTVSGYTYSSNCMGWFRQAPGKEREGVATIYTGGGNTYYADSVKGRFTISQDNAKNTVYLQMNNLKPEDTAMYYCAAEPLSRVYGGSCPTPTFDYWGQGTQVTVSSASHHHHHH	MFI	2060
DR441(DR236-DR231) (bispecific antibody) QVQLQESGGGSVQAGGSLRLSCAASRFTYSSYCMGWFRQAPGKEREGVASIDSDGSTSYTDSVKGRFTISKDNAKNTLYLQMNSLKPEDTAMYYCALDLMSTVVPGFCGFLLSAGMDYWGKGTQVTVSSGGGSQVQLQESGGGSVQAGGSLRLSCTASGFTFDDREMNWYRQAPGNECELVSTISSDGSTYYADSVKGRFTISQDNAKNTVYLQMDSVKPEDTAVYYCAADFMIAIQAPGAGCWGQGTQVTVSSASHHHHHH	MFI	2030
DR465(DR240-DR231) (bispecific antibody) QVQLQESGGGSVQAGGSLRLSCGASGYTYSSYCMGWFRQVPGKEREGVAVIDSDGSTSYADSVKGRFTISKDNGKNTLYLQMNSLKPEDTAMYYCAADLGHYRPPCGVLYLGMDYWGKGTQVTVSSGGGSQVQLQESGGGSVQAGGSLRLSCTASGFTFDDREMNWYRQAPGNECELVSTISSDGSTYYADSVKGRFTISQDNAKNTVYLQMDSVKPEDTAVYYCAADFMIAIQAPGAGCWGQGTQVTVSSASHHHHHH	MFI	1990
DR471(DR241-DR231) (bispecific antibody) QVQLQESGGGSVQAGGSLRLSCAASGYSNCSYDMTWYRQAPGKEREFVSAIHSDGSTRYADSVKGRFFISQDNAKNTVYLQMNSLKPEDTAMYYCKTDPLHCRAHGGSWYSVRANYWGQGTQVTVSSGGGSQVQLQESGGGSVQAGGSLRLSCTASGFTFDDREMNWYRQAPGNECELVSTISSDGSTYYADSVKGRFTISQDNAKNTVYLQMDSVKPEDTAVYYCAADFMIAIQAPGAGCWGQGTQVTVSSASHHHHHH	MFI	2010
